Sourced from PubChem BioAssay AID504848

experiment: Confirmation screen for delayed death inhibitors of the malarial parasite plastid, 96 hour incubation; note: potency is the fitted concentration of half-maximal effect; nearly all actives have a fitted effect of over 60% in size; conditions: P. falciparum luciferase growth in erythrocytes; series mostly up to 28.7 µM
Hit rate of the full screen: of about 2,300 compounds, about 1,400 (61%) were called active. Roughly 29% stayed inconclusive and do not appear here. The set was probably picked from earlier hits. The list shows a part of the results.
MEASURED ENDPOINT: Potency

[in] Fill in Potency for record COc1ccccc1N1CCN(C(=O)c2noc(C(C)C)c2[N+](=O)[O-])CC1
[out] 8.91 µM (active)

[in] Fill in Potency for record Cc1ccc(S(=O)(=O)Nc2cccc3ncccc23)s1
[out] 3.98 µM (active)

[in] Fill in Potency for record O=S(=O)(Nc1cccc2ncccc12)c1cccs1
[out] 3.55 µM (active)

[in] Fill in Potency for record CC(=O)c1cccc(NC(=O)CSc2ccc(-c3sc(C)nc3C)nn2)c1
[out] 12.6 µM (active)

[in] Fill in Potency for record Cn1c(CCN2CCCC2)nc2cc(NS(=O)(=O)c3ccc(Cl)cc3)ccc21
[out] 6.31 µM (active)

[in] Fill in Potency for record CC(=O)/C(C#N)=C1\NC(=O)C(Cc2cc(Cl)ccc2Cl)S1 (configuration not stated)
[out] 14.1 µM (active)

[in] Fill in Potency for record CC(=O)/C(C#N)=C1\NC(=O)C(Cc2ccc(C)c(Cl)c2)S1 (configuration not stated)
[out] 12.6 µM (active)

[in] Fill in Potency for record COc1cccc(/C=N/NC(=O)c2nc(-c3ccccc3)cc(-c3ccccc3)n2)c1O
[out] 7.94 µM (active)

[in] Fill in Potency for record CC(=O)O[C@H]1C(=O)[C@@]2(C)[C@H]([C@H](OC(=O)c3ccccc3)[C@]3(O)C[C@H](OC(=O)[C@H](O)[C@@H](NC(=O)c4ccccc4)c4ccccc4)C(C)=C1C3(C)C)[C@]1(OC(C)=O)CO[C@@H]1C[C@@H]2O
[out] 0.501 µM (active)

[in] Fill in Potency for record c1ccc(SCc2cn(C[C@H]3CC[C@@H]([C@@H]4CC[C@H](Cn5cc(CSc6ccccc6)nn5)O4)O3)nn2)cc1
[out] 11.2 µM (active)

[in] Fill in Potency for record CC(Oc1cccc(Cl)c1)C(=O)Nc1cc(S(=O)(=O)N2CCOCC2)ccc1N1CCCCC1 (configuration not stated)
[out] 3.98 µM (active)

[in] Fill in Potency for record Cc1c(O)ccc(C(=O)CN2CCN(Cc3ccc4c(c3)OCO4)CC2)c1O
[out] 5.01 µM (active)
